Reference for the values: PubChem BioAssay

Let's look at some compounds and their measured z-score.
# experiment-description: ATP-based viability of Huh7 replicon cells – cell-based, CellTiter-Glo luminescence, basal, 48 h, cytotoxicity control for HCV replication inhibitor project, primary screen (AID 1143);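 also: Huh7 hepatoma cells carrying a hepatitis C replication reporter with no stimulus; test concentration not given here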
# protocol-conditions: higher = more signal, called active from +8 up or from −8 down
Number, no unit, nothing else.

Example results:
CN1C(=O)C2C=CC(C(O)C3CCCCC3)N(N(c3ccccc3)c3ccccc3)C2C1=O (stereo not drawn) : 0.673
COC(=O)[C@@]1(Cc2ccc(F)cc2)[C@H]2c3cc(C(=O)N(C)C)n(Cc4ccc(C)c(F)c4F)c3C[C@H]2CN1C(=O)c1ccccc1 : -1.47
O=C(CS)NCCCCCNC(=O)[C@@H]1C[C@@H]2C(=O)N3CCC[C@H]3C(=O)N2[C@@H]1c1ccc(O)cc1 : -0.237
O=C1N(Cc2ccccc2)c2ccccc2[C@H]2OC(c3ccc(OCCCO)cc3)=N[C@@]12CCS(=O)(=O)c1ccccc1 : -4.05
CC(C)NC(=O)[C@@]1(Cc2ccccc2I)c2ccccc2C(=O)N(Cc2ccccc2C(F)(F)F)[C@H]1c1ccc(CO)cc1 : -1.7

Data request, read-out z-score, for CCCCC(=C=CC[C@H](O)c1ccccc1OCCO)C[C@H](O)c1ccccn1 -0.392

Entry to check: C[C@H]1NC(=O)C([C@@H](C)OCc2ccccc2)NC(=O)[C@@]23C(=O)N[C@@H](Cc4ccccc4)C2[C@H](C)[C@@]2(C)O[C@H]2C3/C=C/CC/C=C/CNC1=O (stereo partly drawn) -1.24

Entry to check: Cc1ccc(S[C@]2(C(=O)O)CC(=O)N(C3CCCCC3)[C@@H]2c2ccc(CO)cc2)cc1 -0.0359

Entry to check: O=C1C2C=CC(C(O)c3ccccn3)N(Nc3ccccc3)C2C(=O)N1c1ccccc1 (stereo not drawn) 0.915

====

Let's look at some compounds and their measured z-score.
# experiment-description: forskolin-driven CRE-LacZ activity in PC12 – cell-based, CRE-LacZ reporter, forskolin-stimulated, primary screen (AID 1146);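 also: PC12 cells with 6xCRE LacZ reporter stimulated by forskolin 10 µM; beta-galactosidase reporter signal reflecting CREB driven transcription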
# protocol-conditions: luminescence, 4.5 h, higher = more signal, called active from +8 up or from −8 down
Number, no unit, nothing else.

CC(C)CNC(=O)[C@@]1(C)c2ccccc2C(=O)N(Cc2ccccc2)[C@H]1c1ccc(CO)cc1 : 0.172

Data request, read-out z-score, for CO[C@H]1O[C@H](CO)[C@@H](OC(=O)c2ccc(Br)cc2)[C@@H]2OC(=O)[C@H](Cc3cccc(Br)c3)C/C=C/C[C@@H](Cc3cccc(Br)c3)C(=O)O[C@@H]12 0.122

Entry to check: COCCCNC(=O)[C@@H]1c2ccccc2C(=O)N(Cc2cc(F)cc(C(F)(F)F)c2)[C@H]1c1ccc(CO)cc1 -0.224

Entry to check: CCCCC(=C=CC[C@H](O)c1ccccc1OCCO)C[C@H](O)c1ccccn1 -0.872

====

# experiment-description: compounds binding Alexa647 anti-His antibody – biochemical, small-molecule microarray, 635 nm fluorescence, artefact control for SMM control protein annotation, primary screen (AID 1128);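 also: score merges feature fluorescence with signal-to-noise for each printed compound spot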
# protocol-conditions: higher = more signal
measured-attribute: composite z-score
Number, no unit, nothing else.

C[N+](C)(C)CCCCNC(=O)[C@H]1C[C@H]2C(=O)NCC(=O)N2[C@H]1c1ccc(O)cc1 : 3.01
O=C1O[C@@H](c2ccccc2)[C@@H](c2ccccc2)N2[C@@H](c3ccc(O)cc3)[C@]3(C(=O)Nc4ccc(C#CC5=CCCCC5)cc43)[C@@H](C(=O)Nc3nc4ccccc4s3)[C@H]12 : 1.15
COC(=O)C(CC#Cc1ccc2c(c1)[C@]1(C(=O)N2)[C@H](c2ccc(O)cc2)N2[C@H](c3ccccc3)[C@H](c3ccccc3)OC(=O)[C@H]2[C@@H]1C(=O)O)C(=O)OC : 0.124
COC(=O)c1c(CC[C@@H](CO)NC(=O)N[C@@H](C)Cn2cc(C3(O)CCCC3)nn2)oc(C(C)=O)c1C(=O)OC : 0.863
COCCOC(=O)N1C(=O)[C@@]2(c3cc(C#Cc4ccc(OC)cc4)ccc31)[C@H](c1ccc(OCCO)cc1)N1[C@H](c3ccccc3)[C@H](c3ccccc3)OC(=O)[C@H]1[C@@H]2C(N)=O : 2.14

Data request, read-out composite z-score, for Cc1ccc(S[C@]2(C(=O)NCC(C)C)CC(=O)N(C3CCCCC3)[C@@H]2c2ccc(CO)cc2I)cc1 0.464

Entry to check: COCCCNC(=O)[C@@H]1c2ccccc2C(=O)N(Cc2cc(F)cc(C(F)(F)F)c2)[C@H]1c1ccc(CO)cc1 -0.669

Entry to check: Cc1ccc(N2C(=O)c3ccccc3[C@](C)(C(=O)NC(C)C)[C@@H]2c2ccc(CO)cc2)nc1 -2.03

Entry to check: O=[N+]([O-])c1ccc(C[n+]2ccc(-c3ccc(CO)cc3)cc2)o1 1.38

Entry to check: O=C1c2ccccc2[C@](Cc2ccccc2I)(C(=O)NCC(F)(F)F)[C@H](c2ccc(CO)cc2)N1Cc1ccccc1 0.0638

Entry to check: O=C1c2ccccc2[C@](Cc2ccccc2I)(C(=O)NC2CC2)[C@H](c2ccc(CO)cc2)N1Cc1ccccc1Cl 1.07

Entry to check: CCOC(=O)C1=CCC(c2cccc(Cl)c2)O1 (stereo not given) 0.433

Entry to check: C=C(C)[C@@H]1CC=C(C(O)C2C=CC3C(=O)N(C4CCCCC4)C(=O)C3N2Nc2ccc(OC)cc2)CC1 (stereo not given in full) 0.736

Entry to check: C=C(COC)/C(=C/C[C@@H](OC(=O)c1ccncc1)c1cccc(OCCO)c1)c1cc(C(=O)OC)ccc1OC 0.0301

Entry to check: C[N+](C)(C)CCCC[C@@H]1NC(=O)[C@@H]2C[C@H](C(=O)NCCCCCNC(=O)CS)[C@H](c3cccc(OCCO)c3)N2C1=O 0.664

====

# experiment-description: forskolin-driven CRE-LacZ activity in PC12 – cell-based, CRE-LacZ reporter, forskolin-stimulated, primary screen (AID 1146);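 also: PC12 cells with 6xCRE LacZ reporter stimulated by forskolin 10 µM; beta-galactosidase reporter signal reflecting CREB driven transcription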
# protocol-conditions: luminescence, 4.5 h, higher = more signal, called active from +8 up or from −8 down
Assign MET to entries whose z-score meets or exceeds 0.2; assign NOT MET to the rest.

These recorded examples may help you get a feel for the data.
C=CCN1C(=O)[C@@]2(O[C@@H](CCO)[C@H]([Si](C)(C)c3ccc(OC)cc3)[C@H]2C)c2cc(NC(=O)[C@H](C)O)ccc21 : NOT MET
CCOC(=O)C1=CC[C@@H](c2ccccc2)N(S(=O)(=O)c2ccc(C)cc2)[C@H]1C=C(C)C : MET
COC(=O)[C@]1(Cc2ccccc2CN=[N+]=[N-])N=C(c2ccc(OCCCO)cc2)O[C@@H]1c1ccccc1CN=[N+]=[N-] : NOT MET

hey, is z-score for this one >= 0.2? CCOC(=O)C1=CC[C@@H](c2cccc(Br)c2)N(S(=O)(=O)c2ccc(C)cc2)[C@H]1c1ccc([N+](=O)[O-])cc1 NOT MET

Entry to check: [N-]=[N+]=NCc1ccccc1C[C@]1(C(=O)NCCN2CCOCC2)COC(c2ccc(OCCCO)cc2)=N1 NOT MET

====

# System: Inhibin beta A chain (activin A)
# experiment-description: small molecules binding activin A – biochemical, small-molecule microarray, 635 nm fluorescence scan, primary screen (AID 1107);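 also: mouse activin A protein probed at 4.33 µg/mL on printed slides; score merges bound-protein fluorescence near 667 nm with spot signal-to-noise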
# protocol-conditions: INHBA, higher = more signal
Classification scheme (composite z-score): lower bin: < 0.3; middle bin: ≥ 0.3 and < 0.7; upper bin: ≥ 0.7

COc1ccc(CCNC(=O)[C@@H]2c3ccccc3C(=O)N(Cc3ccccc3C(F)(F)F)[C@H]2c2ccc(CO)cc2)cc1 : lower bin

Could you tell me which band O=C1N(Cc2ccccc2)c2ccccc2[C@H]2OC(c3ccc(OCCCO)cc3)=N[C@@]12CCS(=O)(=O)c1ccccc1 belongs to? upper bin

Entry to check: CC(C)(C)N1CC=CC23O[C@@H]4C=CCCOC(=O)C4[C@H]2C(=O)N(CCCO)[C@@H]3C1=O (stereo partly drawn) upper bin

Entry to check: COc1cc2c(cc1OC)CN(C(=O)[C@@H]1[C@H]3C(=O)O[C@H](c4ccccc4)[C@H](c4ccccc4)N3[C@H](c3ccc(O)cc3)[C@@]13C(=O)Nc1ccc(C#CCNC(N)=O)cc13)CC2 upper bin

Entry to check: [N-]=[N+]=NCc1ccccc1[C@H]1OC(c2ccc(OCCCO)cc2)=N[C@@]1(Cc1ccccc1N=[N+]=[N-])C(=O)NCCN1CCOCC1 middle bin

Entry to check: COc1ccc(C#Cc2ccc3c(c2)[C@]2(C(=O)N3)[C@H](C(=O)O)[C@H]3C(=O)O[C@H](c4ccccc4)[C@H](c4ccccc4)N3[C@@H]2c2ccc(OCCO)cc2)cc1 lower bin

Entry to check: COCCCNC(=O)[C@@]1(Cc2ccccc2CN=[N+]=[N-])N=C(c2ccc(OCCCO)cc2)O[C@H]1c1ccccc1N=[N+]=[N-] middle bin

Entry to check: COC(=O)[C@]1(Cc2ccccc2N=[N+]=[N-])N=C(c2ccc(OCCCO)cc2)O[C@@H]1c1ccccc1 upper bin

Entry to check: COC(=O)C(CC#Cc1ccc2c(c1)[C@]1(C(=O)N2)[C@H](c2ccc(O)cc2)N2[C@H](c3ccccc3)[C@H](c3ccccc3)OC(=O)[C@H]2[C@@H]1C(=O)O)C(=O)OC lower bin

Entry to check: COCCOC(=O)N1C(=O)[C@@]2(c3cc(C#CCC(C(=O)OC)C(=O)OC)ccc31)[C@H](c1ccc(OCCO)cc1)N1[C@H](c3ccccc3)[C@H](c3ccccc3)OC(=O)[C@H]1[C@@H]2C(N)=O middle bin

Entry to check: COC(=O)[C@@]1(Cc2ccccc2)[C@H]2c3cc(C(=O)N4CCCC4)n(Cc4ccccc4)c3C[C@H]2CN1C(=O)c1ccccc1 middle bin

Entry to check: C[C@]12C(=O)N(CCCO)[C@@H]3C(=O)N(c4ccc(Cl)cc4)CC=CC31O[C@@H]1/C=C\CCCOC(=O)C12 (stereo partly drawn) lower bin
